target_entity: OTR (Homo sapiens)
Sequence (P30559 1-389): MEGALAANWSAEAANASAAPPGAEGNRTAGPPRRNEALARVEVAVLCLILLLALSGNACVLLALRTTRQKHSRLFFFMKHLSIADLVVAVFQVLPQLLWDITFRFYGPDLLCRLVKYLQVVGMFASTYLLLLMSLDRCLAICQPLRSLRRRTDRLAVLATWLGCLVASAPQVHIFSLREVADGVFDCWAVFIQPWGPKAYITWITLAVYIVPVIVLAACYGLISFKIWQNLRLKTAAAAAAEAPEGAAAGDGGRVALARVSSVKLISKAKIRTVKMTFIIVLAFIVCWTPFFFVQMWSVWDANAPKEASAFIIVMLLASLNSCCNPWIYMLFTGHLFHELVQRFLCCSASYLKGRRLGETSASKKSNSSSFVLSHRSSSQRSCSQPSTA
test_summary: Ca2+ mobilization in cells stably expressing OTR (FLIPR, antagonist mode)
condition_details: OTR/HEK293 stably transfected cell line
pIC50: −log10 of the molar value.
measurement_name: pIC50

Record excerpt, results attached:
Recorded pIC50 (compound `CO/N=C1/C[C@@H](CO)N(C(=O)c2ccc(-c3cccc(C#N)c3C)c3c2OCCO3)C1` ): 8.09

Recorded pIC50 (compound `CO/N=C1/C[C@@H](CO)N(C(=O)c2ccc(-c3cccc(C#N)c3C)c(C3(O)COC3)c2)C1` ): 5.83

Recorded pIC50 (compound CO/N=C1/C[C@@H](CO)N(C(=O)c2ccc(-c3ccc(C#N)cc3C)cc2)C1 (single isomer, unassigned) ): 5.94

[A] COCCOc1cc(C(=O)N2C/C(=N\OC)C[C@H]2CO)ccc1-c1cccc(C)c1C
[B] CO/N=C1/C[C@@H](CO)N(C(=O)c2ccc(-c3cccc(Cl)c3C)cc2)C1
[C] CO/N=C1\C[C@@H]([C@H](C)O)N(C(=O)c2ccc(-c3cccc(C#N)c3C)cc2)C1 (single isomer, unassigned)
[D] CO/N=C1/C[C@@H](CO)N(C(=O)c2ccc(-c3cccc(C#N)c3C)c(OCC3CC3)n2)C1
Sort the 4 compounds by pIC50; largest first, smallest last. Reply with the labels, ordered as the question asks.
B, A, D, C

// data source = patent US20260248763A1
